# TARGET OF ASSAY: human GLP-1R (Homo sapiens)
# Construct: host or cells: HEK293
# RUN DESCRIPTION: GLP-1R cAMP assay (Example B1a, HTRF, 30 min at room temperature)
# Format: cell-based
# DETAILS: cAMP accumulation in HEK293 expressing human GLP-1R, no BETP, 30 min room temperature (Method B1a, compounds ID 1-609), Table 1; read-out: EC50
Entries annotated with measured EC50
Report only the number, with the unit nM understood.

Worked examples follow.
Cc1cc(-n2nc3c(c2-n2ccn(-c4ccc5c(cnn5C)c4F)c2=O)[C@@H]2CCC[C@H](C3)N2S(=O)(=O)c2cc3cc([C@H]4CCOC(C)(C)C4)ccc3n2C2(c3noc(=O)[nH]3)C[C@@H]2C)cc(C)c1F (stereo partly drawn) [Compound 527] ... 975
Cc1cc(-n2nc3c(c2-n2ccn(-c4ccc5c(cnn5C)c4F)c2=O)[C@H](C)N(C(=O)c2cc4cc([C@H]5CCOC(C)(C)C5)ccc4n2[C@@]2(c4noc(=O)[nH]4)C[C@@H]2C)CCC3)cc(C)c1F [Compound 518] ... 73.5
Cc1cc(-n2nc3c(c2-n2ccn(-c4cccc(C(N)=O)c4F)c2=O)[C@@H]2CC[C@H](C3)N2C(=O)c2cc3cc([C@H]4CCOC(C)(C)C4)ccc3n2[C@@]2(c3noc(=O)[nH]3)C[C@@H]2C)cc(C)c1F [Compound 422] ... 303
Cc1cc(-n2nc3c(c2-n2ccn(-c4ccc5cnncc5c4F)c2=O)CN(C(=O)c2cc4cc([C@H]5CCOC(C)(C)C5)ccc4n2[C@@]2(c4noc(=O)[nH]4)C[C@@H]2C)CCC3)cc(C)c1F [Compound 521] ... 197

# context switch: different compound, same EC50
Problem: Supply measured EC50 of Cc1cc(-n2nc3c(c2N2C(=O)CN(c4ccc5c(cnn5C)c4F)C2=O)[C@H](C)N(C(=O)c2cc4cc([C@H]5CCOC(C)(C)C5)ccc4n2[C@@]2(c4noc(=O)[nH]4)C[C@@H]2C)CC3)cc(C)c1F [Compound 23] in your reply.
Result: 361

====

# TARGET OF ASSAY: human GLP-1R (Homo sapiens)
# Construct: host or cells: HEK293
# RUN DESCRIPTION: GLP-1R cAMP assay (Example B1a, HTRF, 30 min at room temperature)
# Format: cell-based
# DETAILS: cAMP accumulation in HEK293 expressing human GLP-1R, no BETP, 30 min room temperature (Method B1a, compounds ID 1-609), Table 1; read-out: EC50
OBSERVED PROPERTY: EC50

Record excerpt, results attached:
Cc1cc(-n2nc3c(c2-n2ccn(-c4ccc5c(cnn5C)c4F)c2=O)[C@H]2CCC[C@@H](C3)N2C(=O)c2cc3cc([C@H]4CCOC(C)(C)C4)ccc3n2[C@@]2(c3noc(=O)[nH]3)C[C@@H]2C)cc(C)c1F ... ≥ 10000 nM
Cc1cc(-n2nc3c(c2-n2ccn(-c4ccc5c(cnn5C)c4F)c2=O)[C@@H]2CC[C@H](C3)N2C(=O)c2cc3cc(C4COC(C)(C)C4)ccc3n2[C@@]2(c3noc(=O)[nH]3)C[C@@H]2C)cc(C)c1F (stereo partly drawn) ... 836 nM
CCP(=O)(CC)c1ccc(-n2ccn(-c3c4c(nn3-c3cc(C)c(F)c(C)c3)C[C@H]3CC[C@@H]4N3C(=O)c3cc4cc(C5CCOCC5)ccc4n3[C@@]3(c4noc(=O)[nH]4)C[C@@H]3C)c2=O)cc1NC ... 233 nM
Cc1cc(-n2nc3c(c2-n2ccn(-c4ccc5c(cnn5C)c4F)c2=O)[C@@H]2CC[C@H](C3)N2C(=O)c2cc3cc([C@@H]4CCOC5(CCC5)C4)ccc3n2[C@@]2(c3noc(=O)[nH]3)C[C@@H]2C)cc(C)c1F ... ≥ 10000 nM
Cc1cc(-n2nc3c(c2-n2ccn(-c4ccc5c(cnn5C)c4F)c2=O)[C@@H]2CCC[C@H](C3)N2S(=O)(=O)c2cc3cc([C@@H]4CCOC5(CC5)C4)ccc3n2[C@@]2(c3noc(=O)[nH]3)C[C@@H]2C)cc(C)c1F ... 839 nM
Cc1cc(-n2nc3c(c2-n2ccn(-c4cc(F)c5c(cnn5C)c4F)c2=O)[C@@H]2CC[C@H](C3)N2C(=O)c2cc3cc([C@H]4CCOC(C)(C)C4)ccc3n2[C@@]2(c3noc(=O)[nH]3)C[C@@H]2C)cc(C)c1F ... 459 nM
Cc1cc(-n2nc3c(c2-n2ccn(-c4cc(F)c5c(cnn5C)c4F)c2=O)[C@@H]2CC[C@H](C3)N2C(=O)c2cc3cc([C@H]4CCOC(C)(C)C4)ncc3n2[C@@]2(c3noc(=O)[nH]3)C[C@@H]2C)cc(C)c1F ... 785 nM
Cc1cc(-n2nc3c(c2-n2ccn(-c4ccc5c(cnn5C)c4F)c2=O)C2COCC(C3)N2C(=O)c2cc3cc([C@H]4CCOC(C)(C)C4)ccc3n2[C@@]2(c3noc(=O)[nH]3)C[C@@H]2C)cc(C)c1F (stereo partly drawn) ... 174 nM

Proceeding to the next compound to report its EC50.
Problem: Output measured EC50 for this item: `Cc1cc(-n2nc3c(c2-n2ccn(-c4ccc5c(cnn5C)c4F)c2=O)[C@@H]2CC[C@H](C3)N2Cc2cc3cc([C@H]4CCOC(C)(C)C4)ccc3n2[C@@]2(c3noc(=O)[nH]3)C[C@@H]2C)cc(C)c1F`
Result: 110 nM

====

# TARGET OF ASSAY: human GLP-1R (Homo sapiens, UniProt P43220)
# Construct: host or cells: HEK293
# Sequence (P43220 24-463): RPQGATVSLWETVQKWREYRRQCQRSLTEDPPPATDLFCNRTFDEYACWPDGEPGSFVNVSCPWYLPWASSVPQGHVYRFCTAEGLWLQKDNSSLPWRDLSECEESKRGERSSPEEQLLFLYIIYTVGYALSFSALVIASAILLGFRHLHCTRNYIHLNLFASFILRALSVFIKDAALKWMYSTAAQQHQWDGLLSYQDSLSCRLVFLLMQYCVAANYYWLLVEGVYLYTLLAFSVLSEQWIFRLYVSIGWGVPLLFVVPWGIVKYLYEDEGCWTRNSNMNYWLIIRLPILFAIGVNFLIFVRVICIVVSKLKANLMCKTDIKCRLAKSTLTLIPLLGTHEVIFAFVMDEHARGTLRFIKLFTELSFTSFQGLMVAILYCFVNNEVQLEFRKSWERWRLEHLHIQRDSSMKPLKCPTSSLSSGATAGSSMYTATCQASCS
# RUN DESCRIPTION: GLP-1R cAMP assay (Example B1a, HTRF, 30 min at room temperature)
# Type: cell-based
# DETAILS: cAMP accumulation in HEK293 expressing human GLP-1R, no BETP, 30 min room temperature (Method B1a, compounds ID 1-609), Table 1; read-out: EC50
# Description: Assay was carried out with HEK293 expressing human GLP-1R using HTRF assay, developed by Wuxi Apptec. The method is a competitive assay between native cAMP produced by the cells and exogenous cAMP labeled with a proprietary dye d2. […] Plates were read on Envision plate reader. The data were analyzed by ScreenUltra in Dotmatics, with % activation expressed using following formula: (Well data−negative control)/(postive control−negative control)*100. […]
Each entry below carries its reported EC50.
Dear colleague, please return just the value in nM, with no unit written.

Cc1cc(-n2nc3c(c2-n2ccn(-c4ccc5c(cnn5C)c4F)c2=O)[C@@H]2CC[C@H](C3)N2C(=O)c2cc3cc([C@H]4CCOC5(CC5)C4)ccc3n2[C@@]2(c3noc(=O)[nH]3)C[C@H]2C)cc(C)c1F [Compound 542] ... 1620

Problem: Provide EC50, recorded with human GLP-1R (Homo sapiens, UniProt P43220), of Cc1cc(-n2nc3c(c2-n2ccn(-c4ccc5c(cnn5C)c4F)c2=O)[C@@H]2CC[C@H](C3)N2C(=O)c2cc3cc([C@H]4CCOC5(CCC5)C4)ccc3n2[C@@]2(c3noc(=O)[nH]3)C[C@@H]2C)cc(C)c1F [Compound 426]
Result: 134

Problem: Would you please give the reported EC50 of Cc1cc(-n2nc3c(c2-n2ccn(-c4ccc5c(cnn5C)c4F)c2=O)[C@@H]2COC[C@H](C3)N2S(=O)(=O)c2cc3cc(C4CCOCC4)ccc3n2[C@@]2(c3noc(=O)[nH]3)C[C@@H]2C)cc(C)c1F [Compound 526] with human GLP-1R (Homo sapiens, UniProt P43220)?
Result: 1130

Problem: Lab note: record EC50 of Cc1cc(-n2nc3c(c2-n2ccn(-c4ccc5c(cnn5C)c4F)c2=O)[C@@H]2CC[C@H](C3)N2C(=O)c2cc3cc(C4CCOC5(CCC5)C4)ccc3n2[C@@]2(c3noc(=O)[nH]3)C[C@@H]2C)cc(C)c1F (stereo partly drawn) [Compound 415] tested on human GLP-1R (Homo sapiens, UniProt P43220).
Result: 361

Problem: GET EC50 where system = human GLP-1R (Homo sapiens, UniProt P43220) and item = Cc1cc(-n2nc3c(c2-n2ccn(-c4ccc5c(cnn5C)c4F)c2=O)[C@@H]2CC[C@H](C3)N2C(=O)c2cc3sc([C@H]4CCOC(C)(C)C4)nc3n2[C@@]2(c3noc(=O)[nH]3)C[C@@H]2C)cc(C)c1F [Compound 306]
Result: 2450

====

# TARGET OF ASSAY: human GLP-1R (Homo sapiens, UniProt P43220)
# Construct: host or cells: HEK293
# RUN DESCRIPTION: GLP-1R cAMP assay (Example B1a, HTRF, 30 min at room temperature)
# Format: cell-based
# DETAILS: text to Table 1d, bridge atoms configured out of the plane or toward the reader
OBSERVED PROPERTY: potency

Cc1cc(-n2nc3c(c2-n2ccn(-c4ccc5c(cnn5C)c4F)c2=O)[C@H]2CCC[C@@H](C3)N2C(=O)c2cc3cc([C@H]4CCOC(C)(C)C4)ccc3n2[C@@]2(c3noc(=O)[nH]3)C[C@@H]2C)cc(C)c1F ... little or no potency
Cc1cc(-n2nc3c(c2-n2ccn(-c4ccc5c(cnn5C)c4F)c2=O)[C@H]2CC[C@@H](C3)N2C(=O)c2cc3cc([C@H]4CCOC5(CC5)C4)ccc3n2[C@@]2(c3noc(=O)[nH]3)C[C@@H]2C)cc(C)c1F ... little or no potency
